Assay: yeast display, Sf9 membrane polyspecificity reagent, FACS + sequencing; frameworks hold sequencing errors
metric: polyreactivity (PSR sort gate)

Below, each entry is followed by its recorded polyreactivity (PSR sort gate) result.
| query.sequence | result |
| --- | --- |
| QVQLVESGGGLVQAGGSLRLCCAAYGFTFRINAMGWYRQAHGKERELVAYMSGRGGSTYYADSVQGRFTISRDNAMNTVYLQMNSLKPEDTAVYYCAATGSSSMSSYYLGQGTQVTVSS | high polyreactivity |
| QVQLVESGGGLVQAGGSLRLSCAASGRTFGTYAMGWYRQAPGKERELVASITSGDSTNYADSVKGRFTISRDYAKNTVYLQMNSLKPEDTAVYYCNARGDVIVTPPKFSFNYEYWGQGTQVTVSS | low polyreactivity |
| QVQLVESGGGLVQAGGSLRLSCAASGFIFADYAMGWYRQAHGKERELVAAITRSGGRTYYADSVKGRFTISRDTAKNTVYVQMNSLKPDDTAVYYCNAGYAHTYDYWGQGTQVTVSS | high polyreactivity |
| QVQLVESGGGLVQAGGRLRLSCAASGRIFWINDMGWYRQAPGKERELVAAITWSGASTYYADSVKGRFTISRDNAKNTVYLQMNSLKPEDTAVYYCAAVIADSLYYSYDYWGQGTQVTVSS | high polyreactivity |
| QVQLVESGGGLVQAGGSLRLSCAASGRIFGTYTMGWYRQAPGKERELVAAITTGGITNYADSVKGRFTISRDNAKNTVYLQMNSLKPEDTAVYYCNARWDYGAYEYWGQGTQVTVSS | low polyreactivity |

Recall and state the measured polyreactivity (PSR sort gate) for QVQLVESVGGLVQAGGSLRLSCAASGITFLQYAMGWYIQAPGKERELVATINSGGSTNYADSVKGRFTISRDNAKNTVYLQMNSLKPEDTAVYYCAADYGSDYTKGDYWGQGTQVTVSS .
low polyreactivity

Recall and state the measured polyreactivity (PSR sort gate) for QVQLVESGGGIVQAGGSLRLSCAASGSTSRDYAMGWYRTAPGKERELVAAITWSGGRTYYADSVKGRFTISRDNAKNTVYLQMNSLKPEDTAVYYCAAYHREGRRDDYWGQGTQVTVSS .
low polyreactivity

Recall and state the measured polyreactivity (PSR sort gate) for QVQLVESGGGLVQAGGSLRLSCAASGVTFAHNAMGWYRQAPGKERELVAAITRSGGSTYYADSVKGRFTISRDNAKNTVYLQMNSLKPEDTAVYYCIAGRRGSGYGYWGQGTQVTVSS .
high polyreactivity

Recall and state the measured polyreactivity (PSR sort gate) for QVQLVESGGGLFQAGGSLRLSCAASGRIFQHNTMGWYRQAPGKEREFVAAIRRSGGSTYYADSVKGRFTISRDNAKNTVYLQMNSLKPEDTAVFYCAARDYPTGTRRWGGGDSWGQGTQVTVSS .
low polyreactivity

Recall and state the measured polyreactivity (PSR sort gate) for QVQLVESAGGLVQAGGSLRLSCAASGRTFGRKAMVWSRQAPGERELGAVISRGGSTYYADTVKGRFTISRDNAKNTVYLQMNILKPEDTAVYYCNADTVYTRTGPYDYWGQGTQVTVSS .
low polyreactivity

Recall and state the measured polyreactivity (PSR sort gate) for QDQLVESGGGLVQAGGSLRLSCAASGSILGHYDMGWYRPAPGKERELVAAISWSGGSTYYADSVKGRFTISRDNAKNTVYLQMNSLKPEDTAVYYCNAAAILYTSAGSLYWYDYWGQGTQVTVSS .
low polyreactivity

* * *

Experiment: yeast display, Sf9 membrane polyspecificity reagent, FACS + sequencing; frameworks hold sequencing errors
metric: polyreactivity (PSR sort gate)

| query.sequence | metric | result |
| --- | --- | --- |
| QVQLVESGGGLVQEGCSLRLICAASGSIFGYYAMGWYRQAPGKERELVAAISTAGSTNYADSVKGRFTISRDNAKNTVYLQMNSLKPEDTAVYYCAKKSSWYYPERFDYWGQGTQVTVSS | polyreactivity (PSR sort gate) | low polyreactivity |
| QVQLVDSGGGIGQAGASLRLSCAASGRNFAVYAIGWYRQAPGKERELVAAITRNGGSTYADSVKGRFTISRDNAKNTVYFQMNSLKPDDTAVYYCNAVAYIYSYAYPPYWGREHLNYWGQGTQLTVSS | polyreactivity (PSR sort gate) | low polyreactivity |
| QVQLVESGGGLVQAGGSLRLSCAASGSIFWGTAMGWERQAPGKERELVAAISWSGGSTYYADSVKGRFTISRDNAKNTVDLQMHSLKPEDTAVYYCAARFKRVGSIPYYYWGQGTQVTVSS | polyreactivity (PSR sort gate) | high polyreactivity |
| QVQLVESGGGLVQAGGSLRLSCAASGIIFYVYAMGWYRQAPGKERELVATITRRDDSTYYADSVKGRFTISRDNAKNTVYLQMNSLKPEDTAVSYCNADFWLLSEYDYWGQGTQVTVSS | polyreactivity (PSR sort gate) | low polyreactivity |

Recall and state the measured polyreactivity (PSR sort gate) for QVQLVESGGGLVQAGGSLRLSCAASGRIFGGYAMGGDRQAPGKERELVAVISGRGGSTYYADSVKGRFTISRDNAKNTVYLQMNSLKPEDTAVYYCTVYRRIQRYGPQSYDYWGQGTQVTVSS .
high polyreactivity

* * *

Experiment: yeast display, Sf9 membrane polyspecificity reagent, FACS + sequencing; frameworks hold sequencing errors
metric: polyreactivity (PSR sort gate)

Below, each entry is followed by its recorded polyreactivity (PSR sort gate) result.
| query.sequence | polyreactivity (PSR sort gate) |
| --- | --- |
| QVQLVESGGGLVQAGGRLRLSCAASGSIFERNVMGWYRQAPGKERELVAAITSGGSTNYADSVKGRFTISRDNAKNTVYLQMNSLKPEETAVYYCAADVPYRSRFYRYRLSGGDYWGQGSQVTVSS | low polyreactivity |
| QVQLVESGGGLVQAGGSLRLSCAASGYTFTIYAMGWYRQAPGKQRELVAAITGRGGRTNYADSVKGRFTISRDNAKNTVYLQMNSLKPEDTAVYYCNAVTKVVYHGPYGYDYWGQGTQVTVSS | high polyreactivity |
| QVQLVESGGGLDQAGGSLRLSCAASGSISVWYVMGWYRQAPGKERELVAAITRSGGSTFYADSLKGRFTISRDNAKNTVYLQMNSLKPEDTAVYYCASDGGVAWGYGDWGQGTQVTVSS | low polyreactivity |
| QDQLVESGAGLVQAGGSLRLSCAASGRIFTPYAMGGYRHAPRKERELVAVIRDGSTYFADSVKGRFTISRDNAKNTVYFQMKSLKPEETAGYYCRYDIWVWWSGAYDYWGQGTQVTVSS | low polyreactivity |
| QVQLVESGGGLVQAGGILRLSCAASGSTFVRYVMVWYRQAPGKERELVAAISRRGGSTYYADSVKGRFTISRDNAKNTVYLQMNSLKPEDTAVNYCARTVGYRTLLESDSWGQGTQVTVSS | high polyreactivity |

Recall and state the measured polyreactivity (PSR sort gate) for QVQLVESGGGLVQAGGSLRLSCAASGRIFDYYAMGWYRQAPGKERELVASISRSGGSTYYADSVKGRFTISRDNAKNTVYLQMNSLKPEDTAVYYCAARRGYYYGRVGYWGQGTQVTVTS .
high polyreactivity

Recall and state the measured polyreactivity (PSR sort gate) for QVQLVESGGGLVQAGGSLRLSCAASGFIFSYYAMGWYRQAPGKERELVADISRGGSTYYADSVKGRFTISRDNAKNTVYLQMNSLKPEDTAVYYCNAYIRYVVNGYRVYSFDYWGQGTQVTVSS .
high polyreactivity

Recall and state the measured polyreactivity (PSR sort gate) for QVQLVESGGGLVQAGGSLRLSCAASGFTLYSYAMGWYRQAPGKERELVAAISWSGTRTYYADTVKGRFTISRDNAKNTVYLQMNSLKPEDTAVYYCAARGYRYGYGYWGQCTQVTVSS .
high polyreactivity

* * *

Assay: yeast display, Sf9 membrane polyspecificity reagent, FACS + sequencing; frameworks hold sequencing errors
metric: polyreactivity (PSR sort gate)

Below, each entry is followed by its recorded polyreactivity (PSR sort gate) result.
| query.sequence | result |
| --- | --- |
| QVQLVESGGGLVQAGGSLRLSCAASGSIFGYYAMGWYRQAPGKERELVAAITWSGDSTYYADSVKGRFTISRDNAKNTVYLQMNSLKPEDTAVYYCAARQFVHTRYFSFGYWGQGTQVTVSS | low polyreactivity |
| QVQLVESGVGLVQAGGSLRLSCAASGFMFGGSAMGWKRQAPGKERELVAAITRSGGSTYYADSVKGRFTISRDNAKNTVYLQMNSLKPEDTAVYYCAAERQPYRTSSYNYWGQGTQVTVSS | high polyreactivity |
| QVQLVESGGGLVQAGGSLRLSCAASGITFYRYAVGWYRQAPGKERELVAAISCRGGRTYYADSVKGRFTISRDNAKKTVYLQMISLKPEDTAVDYCAAVASRIRGWLDITAYDYWGQGTQVTVSS | high polyreactivity |
| VQLVESGGGLVQAGGSLRLSCAASGRIFSNNAMGWYRQAPGKEREFVAAITTSAGRTYYADSVKGRFTISRDNAKNTVYLQMNSLKPEDTAVYYCAAEPRQYWEYNYWGQGTQVTVSS | high polyreactivity |

Recall and state the measured polyreactivity (PSR sort gate) for QVQLVESGGGLVQAGGSLRLSCAASGLIFSTYAMGWYRQAPGKERELVAAITNSGGSTYYADSVKGRFTISRDNAKNTDYLQMNSLKPEDTAVYYCARRRSYRDNYWGQGTQVTVSS .
high polyreactivity

Recall and state the measured polyreactivity (PSR sort gate) for QDQHVESAGGLVQAGGSLRLSCAASGRIFTINARGWYRQAPGKERELVAGISGRSGGTYYADSVKGRFTISRDNAKNTVYLEMNSLKPEDTAVYYCAGDDWYSTYFEFNYWGQGTQVTVSS .
low polyreactivity

Recall and state the measured polyreactivity (PSR sort gate) for QVQLVESGGGLVQAGGSLRLSCAASGITFTGYAMGWYRQAPGKERELVAVISETGGSTYADSVKGRFTISRDNAKNTVYLQMNSLKREDTAVYYCAARLWWPYSTAWAKMDYWGQGTQVTVSS .
low polyreactivity

Recall and state the measured polyreactivity (PSR sort gate) for QVQLVESGGGLVQAGGSLRLSCAASGSTLVDNGMGWYRHAPGKERELVASISSDGSTNYADSVKGRFTISRDNAKYTVYLQMNSLKTEDPAVYYCAADEGTGQASLSSNLSDYWGQGTQVTVSS .
low polyreactivity

Recall and state the measured polyreactivity (PSR sort gate) for QVQLVESGGGLVQAGGSLRLSCAASGFIFSTNAMGWYRQAPGKERELVAAISASGGITYYADSVKGRFTISRDNAKNTVYLQMNSLKPEDTAVYYCAVYYYSPGNNIYGYWGQGTQVTVSS .
high polyreactivity

Recall and state the measured polyreactivity (PSR sort gate) for QVQLVESGGGLVQVGGILLLSCAASGFTFYDYAMGWYRQAPGKERELVAAISRGGSTYYADSVKGRFTISRDNAKNTVNLQMNSLKPEDTAVYYCNARPTRIYHGMVYWGQGTQVTVSS .
low polyreactivity

Recall and state the measured polyreactivity (PSR sort gate) for QVQLVESGGGLVQAGGSLRLSCAASGRTFGKYAMGWYRQAPGKDRELVATISRSGGSTYYAVSVKGRFTISRDNAKNTVYLQMNSLKPEDTAVYYCNAVTSRYIWPPVVDRYHYWGQGTQVTVSS .
high polyreactivity
